# EXPERIMENTAL TARGET: UniProt Q07820
# ASSAY INFO: Cell free Mcl-1:Bim affinity assay (fluorescence polarization competition)
# Assay type: binding
# CONDITION: 15 nM MCL-1, 5 nM FITC-Bim, 1 hour at room temperature; class symbols; read-out: BIM_Ki
MEASUREMENT NAME: Ki

Example results:
1) CN(C(=O)O[C@H]1/C=C/COC(C)(C)C(=O)NS(=O)(=O)c2ccc3c(c2)N(C[C@@H]2CC[C@H]21)C[C@]1(CO3)OCCc2cc(Cl)ccc21)C1CCOCC1 = < 1 nM
2) CN1C/C=C/[C@H](O)[C@@H]2CC[C@H]2CN2C[C@@]3(CCCc4cc(Cl)ccc43)COc3ccc(cc32)S(=O)(=O)NC(=O)C1(C)C = 1 to 100 nM

Give the reported Ki for this compound. CC1(C)OC/C=C/[C@@H](OCCN2CCOCC2)[C@@H]2CC[C@H]2CN2C[C@@]3(CCCc4cc(Cl)ccc43)COc3ccc(cc32)S(=O)(=O)NC1=O < 1 nM

----------
# EXPERIMENTAL TARGET: MCL-1 (Homo sapiens (Human), UniProt Q07820)
# Sequence (Q07820 whole entry): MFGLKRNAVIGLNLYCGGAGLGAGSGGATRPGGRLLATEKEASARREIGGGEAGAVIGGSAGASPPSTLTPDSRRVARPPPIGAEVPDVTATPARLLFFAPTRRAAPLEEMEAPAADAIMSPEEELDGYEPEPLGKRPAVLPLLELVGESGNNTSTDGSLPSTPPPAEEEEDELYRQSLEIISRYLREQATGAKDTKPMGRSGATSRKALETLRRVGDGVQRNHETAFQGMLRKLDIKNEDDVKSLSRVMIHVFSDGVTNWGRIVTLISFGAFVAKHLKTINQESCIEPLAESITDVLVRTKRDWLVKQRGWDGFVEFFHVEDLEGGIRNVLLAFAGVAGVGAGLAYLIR
# ASSAY INFO: Cell free Mcl-1:Bim affinity assay (fluorescence polarization competition)
# Format: binding
# CONDITION: 15 nM MCL-1, 5 nM FITC-Bim, 1 hour at room temperature; class symbols; read-out: BIM_Ki
pKi: −log10 of the molar value.
Assignment: determine reported pKi for the given compounds.

1) CO[C@@H]1CCCCC(=O)NS(=O)(=O)c2ccc3c(c2)N(C[C@@H]2CC[C@H]21)C[C@@]1(CCCc2cc(Cl)ccc21)CO3 = 7.00 to 9.00
2) CCOC1CN(C(=O)O[C@H]2/C=C/COC(C)(C)C(=O)NS(=O)(=O)c3ccc4c(c3)N(C[C@@H]3CC[C@H]32)C[C@@]2(CCCc3cc(Cl)ccc32)CO4)C1 = > 9.00
3) CN(C)C(=O)OC1CCCOC(C)(C)C(=O)NS(=O)(=O)c2ccc3c(c2)N(C[C@@H]2CC[C@@H]12)C[C@@]1(CCCc2cc(Cl)ccc21)CO3 (some centres unmarked) = 7.00 to 9.00
4) CC1(C)OC/C=C/[C@H](OCCN2CC[C@H](F)C2)[C@@H]2CC[C@H]2CN2C[C@@]3(CCCc4cc(Cl)ccc43)COc3ccc(cc32)S(=O)(=O)NC1=O = 7.00 to 9.00

Let's switch to this compound now.
Respond only with pKi recorded for C[C@H]1CN(C(=O)O[C@H]2/C=C/COC(C)(C)C(=O)NS(=O)(=O)c3ccc4c(c3)N(C[C@@H]3CC[C@H]32)C[C@@]2(CCCc3cc(Cl)ccc32)CO4)CCN1 > 9.00

----------
# System: H929 cells
# ASSAY INFO: Cell viability assay (H929 10 FBS)
# Assay type: cell-based
# CONDITION: Homo sapiens, NCI-H929, 24 hours, read-out: H929_10FBS IC50
pIC50: −log10 of the molar value.
Record form. Attribute: pIC50. Fill in for each entry.

1. CC1(C)OC/C=C/[C@H](OCC(=O)N[C@@H]2CCOC2)[C@@H]2CC[C@H]2CN2C[C@@]3(CCCc4cc(Cl)ccc43)COc3ccc(cc32)S(=O)(=O)NC1=O = > 6.30
2. CO[C@@H]1/C=C/CCN(C)C(=O)NS(=O)(=O)c2ccc3c(c2)N(C[C@@H]2CC[C@H]21)C[C@@]1(CCCc2cc(Cl)ccc21)CO3 = > 6.00

Next, consider the following molecule.
Give pIC50 for the following molecule: CO[C@@H]1/C=C/CNCC(C)(C)C(=O)NS(=O)(=O)c2ccc3c(c2)N(C[C@@H]2CC[C@H]21)C[C@@]1(CCCc2cc(Cl)ccc21)CO3 < 6.00
